Experiment: qHTS assay to identify small molecule agonists of the sonic hedgehog signaling (Shh) pathway - cell viability counter screen (AID 1259366); further: nearly all actives have a fitted effect of over 50% in size
Details: NIH/3T3 Gli1-Luc viability, CellTiter-Fluor, 24 h; series mostly up to 92.4 µM
Results filed as inconclusive are left out. Activity calls are given as the source filed them. The call rests on the fitted dose curve; in most records, active means well fitted cell-killing curve with a large enough effect in the repeat runs; inconclusive means weak or mixed curves, or effect the other way; inactive means flat fitted curve, though single readings scatter.
Pick one: active, inactive

Request: Could you check what this test reported for OC(Cn1cncn1)(c1ccc(F)cc1)c1ccccc1F (stereo not given) ?
Response: inactive

Request: What classification did COC(=O)C(C)Oc1ccc(Oc2ccc(Cl)cc2Cl)cc1 (stereo not given) end up with in this test?
Response: inactive

Request: What call does the record list for `O=C1OC(c2ccc(O)c(S(=O)(=O)O)c2)(c2ccc(O)c(S(=O)(=O)O)c2)c2c(Br)c(Br)c(Br)c(Br)c21` ?
Response: inactive

Request: Entry `Cc1ncsc1CCCl` : call = ?
Response: inactive

Request: Outcome logged for `O=P(O)(Oc1ccccc1)Oc1ccccc1` in this assay:
Response: inactive

Request: Record lookup: outcome of this test for `CCNc1nc(NC(C)C)nc(OC)n1` ?
Response: inactive

Request: Can you look up the reported call for `Nc1cc(Cl)ccc1O` for me?
Response: active

Request: Each compound tested received a call. Report the one for CC(C(=O)c1ccccc1)N(C)C (stereo not given) .
Response: inactive

Request: Which outcome was entered for the compound `Cc1ncc(CNC(=O)N(CCCl)N=O)c(N)n1` in this test?
Response: inactive

Request: What was the test verdict on `CCOC(=O)N(C)C(=O)CSP(=S)(OCC)OCC` ?
Response: inactive

Request: Status in this test for `CCCCOP(=O)(O)OCCCC` ?
Response: inactive

Request: Call for entry `CCCCOC(=O)[C@@H](C)Oc1ccc(Oc2ccc(C#N)cc2F)cc1` :
Response: inactive

Request: I would be grateful if you could indicate the recorded call for CCC(C)n1c(=O)[nH]c(C)c(Br)c1=O (stereo not given) .
Response: inactive

Request: Which outcome did this test record for the compound `C1CCC(C2CCCCC2)CC1` ?
Response: inactive

Request: I would be grateful if you could indicate the recorded call for `COC(=O)c1ccccc1S(=O)(=O)NC(=O)N(C)c1nc(C)nc(OC)n1` .
Response: inactive

Request: What did the test return for CCCSP(=O)(OCC)Oc1ccc(Br)cc1Cl (stereo not given) ?
Response: inactive

Request: How was `O=[N+]([O-])c1cccc2c([N+](=O)[O-])cccc12` classified in this test?
Response: inactive

Request: For O=CNC(N1CCN(C(NC=O)C(Cl)(Cl)Cl)CC1)C(Cl)(Cl)Cl (stereo not given) , which call appears in the assay record?
Response: inactive

Request: Would you mind telling me which call this test gave `CCOP(=S)(OCC)Oc1nc(Cl)n(C(C)C)n1` ?
Response: inactive

Request: Which result was noted for this compound in the test: `O=C(NCO)NCO`
Response: inactive
